System: Noggin (protein binding on small-molecule microarray)
measurement notes: Noggin binders on small-molecule microarray, primary screen, biochemical, 635/667 nm fluorescence (AID 1095);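 also: score merges 667 nm feature fluorescence with signal to noise over triplicate slides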
assay conditions: 635 nm fluorescence, higher = more signal
quantity: composite z-score
No unit in the answer, please; the number alone is enough.

// known answers, use as guide
compound	system tested	value measured
COCCOC(=O)N1C(=O)[C@@]2(c3cc(C#CCCO)ccc31)[C@H](C(=O)N1CCN(c3ncccn3)CC1)[C@H]1C(=O)O[C@H](c3ccccc3)[C@H](c3ccccc3)N1[C@@H]2c1ccccc1OCCO	Noggin (protein binding on small-molecule microarray)	0.791
C=CCN(Cc1ccccc1)C(=O)C(c1cccs1)N(CCOCCO)C(=O)/C=C\C(=O)O (stereo unspecified)	Noggin (protein binding on small-molecule microarray)	-2.41
COCCOC(=O)N1C(=O)[C@@]2(c3cc(C#CC4=CCCCC4)ccc31)[C@H](C(=O)N1CCc3cc(OC)c(OC)cc3C1)[C@H]1C(=O)O[C@H](c3ccccc3)[C@H](c3ccccc3)N1[C@@H]2c1ccc(OCCO)cc1	Noggin (protein binding on small-molecule microarray)	0.916
[N-]=[N+]=NCc1ccccc1[C@@H]1OC(c2ccc(OCCCO)cc2)=N[C@]1(CCS(=O)(=O)c1ccccc1)C(=O)NCc1ccccc1	Noggin (protein binding on small-molecule microarray)	1.81

Request: In one line, give reported composite z-score of the entry O=C1c2ccccc2[C@](Cc2ccccc2I)(C(=O)NC2CC2)[C@H](c2ccc(CO)cc2)N1Cc1ccccc1 .
Response: 0.133

Request: Return the recorded composite z-score value; entry: COCCOC(=O)N1C(=O)[C@@]2(c3cc(C#Cc4ccc(OC)cc4)ccc31)[C@H](c1ccc(O)cc1)N1[C@H](c3ccccc3)[C@H](c3ccccc3)OC(=O)[C@H]1[C@@H]2C(=O)NC[C@H](O)c1ccccc1
Response: 1.48

====

Readings of composite z-score for the listed molecules
measurement notes: binders from COS7 lysate, DM2A8 probe, primary screen, torsin A project, cell lysate, small-molecule microarray, fluorescence 635/667 (AID 1065)
assay conditions: higher = more signal, COS7 lysate expressing mutant human TOR1A
Enter the number alone.

Known results for molecules:
COc1ccc(CCNC(=O)[C@@H]2c3ccccc3C(=O)N(C3Cc4ccccc4C3)[C@H]2c2ccc(CO)cc2)cc1 -0.249
CCOC(=O)C[C@H]1[C@H](OC(=O)Cc2ccc3c(c2)OCO3)[C@@H](NC(=O)c2ccc3ccccc3c2)c2cc(OCCCO)ccc2N1C(=O)c1ccccc1 0.0993

Lab note: next molecule to report on.
Request: Identify composite z-score associated with the molecule COCCOC(=O)N1C(=O)[C@@]2(c3cc(C#CC4=CCCCC4)ccc31)[C@H](c1ccc(O)cc1)N1[C@H](c3ccccc3)[C@H](c3ccccc3)OC(=O)[C@H]1[C@@H]2C(N)=O
Response: 0.185

====

measurement notes: small-molecule microarray binders of probe aDKK1, primary screen, biochemical, biotinylated probe, 635/667 nm fluorescence (AID 1099);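 also: score merges 667nm spot fluorescence with signal to noise across triplicate slides; reference of the scale not given here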
assay conditions: higher = more signal
quantity: composite z-score
Hey, just send me the number, nothing else.

Consider the worked cases shown below.
compound	value measured
O=C(C1N=C(c2ccc(OCCCO)cc2)N(c2ccccc2)O1)N1CCOCC1 (stereo not drawn)	0.56
CCCCC(O)C1C=CC2C(=O)N(c3ccccc3)C(=O)C2N1Nc1ccccc1F (stereo not drawn)	1.4
CO[C@H]1O[C@H](CO)[C@@H](OC(=O)Nc2ccc(Br)cc2)[C@H](OC(=O)c2cc3ccccc3[nH]2)[C@H]1OC(=O)c1cc2ccccc2[nH]1	0.165

Request: Consider the compound CCCC=C(CCC)[C@@H](NC(=O)Oc1ccc(F)cc1)c1ccc(C(=O)OC)cc1 . State its measured composite z-score.
Response: 0.346

Request: Determine from records and report composite z-score for [N-]=[N+]=Nc1ccccc1C[C@]1(C(=O)NCC(O)CO)N=C(c2ccc(OCCCO)cc2)O[C@H]1c1ccccc1N=[N+]=[N-] (stereo partly drawn)
Response: 0.963

Request: Identify measured composite z-score corresponding to CCCCN1CC=CC23O[C@@H]4C=CCOC(=O)[C@@H]4[C@H]2C(=O)N(CCCCCO)[C@@H]3C1=O (stereo partly drawn)
Response: -0.159

Request: Specify measured composite z-score for CCCC#C[Si](O[C@H](CC)c1cn([C@H](CO)Cc2ccccc2)nn1)(C(C)C)C(C)C .
Response: 0.111

Request: In one line, give reported composite z-score of the entry O=C1C2C=CC(C(O)c3ccc(F)cc3)N(Nc3ccccc3F)C2C(=O)N1c1ccccc1 (stereo not drawn) .
Response: 0.131

====

// reported z-score for each item listed
measurement notes: S. cerevisiae growth modulation with rapamycin, primary screen, strain BY4716, OD600, 96 h (AID 1091); also: test concentration not given here
assay conditions: higher = more signal, called active from +8 up or from −8 down
Reply with just the number.

Below, each entry is followed by its recorded z-score result.
compound	z-score
C[C@]1(C(=O)NC2CC2)c2ccccc2C(=O)N(Cc2cc(C(F)(F)F)cc(C(F)(F)F)c2)[C@H]1c1ccc(CO)cc1	-0.0211
COc1cc2c(cc1OC)CN(C(=O)[C@H]1[C@@H]3C(=O)O[C@@H](c4ccccc4)[C@@H](c4ccccc4)N3[C@@H](c3ccc(O)cc3)[C@]13C(=O)Nc1ccc(C#CC4=CCCCC4)cc13)CC2	0.563
COCCOC(=O)N1C(=O)[C@@]2(c3cc(C#CC4=CCCCC4)ccc31)[C@H](C(=O)Nc1nc3ccccc3s1)[C@H]1C(=O)O[C@H](c3ccccc3)[C@H](c3ccccc3)N1[C@@H]2c1ccc(OCCO)cc1	2.07
COCCOC(=O)N1C(=O)[C@@]2(c3cc(C#CCNC(N)=O)ccc31)[C@H](C(=O)NC[C@H](O)c1ccccc1)[C@H]1C(=O)O[C@H](c3ccccc3)[C@H](c3ccccc3)N1[C@@H]2c1ccccc1OCCO	3.45
OC([C@@H]1CC(c2ccccc2)=NO1)[C@H]1CC(c2ccccc2)=NO1 (some centres not stated)	1.55

Request: Recall and state the measured z-score for C=CCC(OC(C)=O)[C@@H]1[C@@H](N(Cc2ccc(-c3ccccc3)cc2)C(=O)Cc2ccc(F)cc2)c2cc(OCCCO)ccc2N1C(=O)c1ccc(-c2ccccc2)cc1 (some centres not stated) .
Response: -0.694

Request: Identify measured z-score associated with C=CCN(Cc1ccccc1)C(=O)C(c1cccs1)N(CCOCCO)C(=O)/C=C\C(=O)O (configuration not stated)
Response: -1.01

Request: Identify measured z-score associated with O=C1C2C=CC(C(O)C3CCCCC3)N(Nc3ccc([N+](=O)[O-])cc3)C2C(=O)N1c1ccccc1 (configuration not stated)
Response: 3.55

Request: Fill in reported z-score for this entry: O=C1O[C@@H](c2ccccc2)[C@@H](c2ccccc2)N2[C@@H](c3ccccc3OCCO)[C@]3(C(=O)Nc4ccc(C#CC5=CCCCC5)cc43)[C@@H](C(=O)Nc3nc4ccccc4s3)[C@H]12
Response: 2.58

Request: Identify the reported z-score for the following entry. CCOc1cc(C(O)C2C=CC3C(=O)N(c4ccccc4)C(=O)C3N2Nc2ccccc2)ccc1O (configuration not stated)
Response: 1.2

Request: Please look at this compound and report its z-score: CC1CC/C=C\[C@H]2OC34C=CCN(Cn5nnc6ccccc65)C(=O)[C@H]3N(C(CO)C(C)C)C(=O)[C@@H]4C2C(=O)O1 (some centres not stated)
Response: -0.931

Request: Output z-score of C=CCN1C(=O)[C@]2(O[C@H](CCO)[C@@H]([Si](C)(C)c3ccc(OC)cc3)[C@@H]2C)c2cc(N3CCCCC3=O)ccc21
Response: 2.23

Request: Annotate the compound O=C1NC(=O)C2C1C=CC(C(O)c1cccc3ccccc13)N2Nc1ccccn1 (configuration not stated) with its measured z-score.
Response: -0.207

Request: Supply reported z-score belonging to this compound: CCCCC=C[C@@H](NC(=O)Oc1cccc(C(F)(F)F)c1)c1ccccc1
Response: 1.01

Request: Supply z-score value. Item: CC(=O)n1cc(C(O)C2C=CC3C(=O)N(C)C(=O)C3N2Nc2ccccc2)c2ccccc21 (configuration not stated)
Response: 1.05

Request: Consider the compound CN(C)C(=O)[C@]1(Cc2ccccc2N=[N+]=[N-])N=C(c2ccc(OCCCO)cc2)O[C@@H]1c1ccccc1 . State its measured z-score.
Response: -0.195

Request: Item [N-]=[N+]=NCc1ccccc1C[C@]1(C(=O)O)N=C(c2ccc(OCCCO)cc2)O[C@H]1c1ccccc1N=[N+]=[N-] : provide z-score
Response: 0.924

Request: State its z-score: C=CC[C@@]1(C(=O)NCc2ccccc2)N=C(c2ccc(OCCCO)cc2)O[C@@H]1c1ccccc1N=[N+]=[N-]
Response: 2.21

Request: Supply reported z-score belonging to this compound: C=CCOC(=O)[C@H]1[C@@H]2C(=O)O[C@@H](c3ccccc3)[C@@H](c3ccccc3)N2[C@@H](c2ccc(OCCOC(=O)[C@@H]3C[C@@H]4C(=O)N5CCC[C@H]5C(=O)N4[C@@H]3c3cccc(OCCO)c3)cc2)[C@]12C(=O)Nc1ccccc12
Response: 2.72

Request: Answer with the recorded z-score for the compound listed here: COCCOC(=O)N1C(=O)[C@@]2(c3cc(C#CC4=CCCCC4)ccc31)[C@H](C(N)=O)[C@H]1C(=O)O[C@H](c3ccccc3)[C@H](c3ccccc3)N1[C@@H]2c1ccc(OCCO)cc1
Response: 3.59

Request: Tell me its z-score given CN1C(=O)C2C=CC(C(O)C3CC=CCC3)N(NC(=O)OC(C)(C)C)C2C1=O (configuration not stated) as the entry.
Response: 0.259

Request: Assign z-score to the following record: [N-]=[N+]=Nc1ccccc1C[C@]1(C(N)=O)N=C(c2ccc(OCCCO)cc2)O[C@H]1c1ccccc1
Response: 0.143

Request: Tell me its z-score given CC(=O)NCCCC[C@@H]1NC(=O)[C@@H]2C[C@H](C(=O)NCCCCN(C)C)[C@H](c3cccc(OCCO)c3)N2C1=O as the entry.
Response: -0.789

Request: # return recorded z-score for entry CN1C(=O)C2C=CC(C(O)C3=C[C@H]4C[C@@H](C3)C4(C)C)N(Nc3ccccc3)C2C1=O (some centres not stated)
Response: 1.31

Request: Name the recorded z-score of the item C=CCC(OC(C)=O)[C@@H]1[C@@H](N(Cc2ccc(-c3cccc(C(F)(F)F)c3)o2)C(=O)c2ccc(-c3ccccc3)cc2)c2cc(OCCCO)ccc2N1C(=O)c1ccc(-c2ccccc2)cc1 (some centres not stated) in your answer.
Response: 0.8

Request: Provide only the value of recorded z-score for COCCOC(=O)N1C(=O)[C@@]2(c3ccccc31)[C@H](c1ccccc1OCCO)N1[C@H](c3ccccc3)[C@H](c3ccccc3)OC(=O)[C@H]1[C@@H]2C(=O)Nc1nc2ccccc2s1
Response: 4.61

Request: Tell us which z-score value is on record for COCCOC(=O)N1C(=O)[C@@]2(c3cc(C#CCCO)ccc31)[C@H](C(=O)N1CCc3cc(OC)c(OC)cc3C1)[C@H]1C(=O)O[C@H](c3ccccc3)[C@H](c3ccccc3)N1[C@@H]2c1ccc(O)cc1
Response: 1.8
